- EXPERIMENT_NOTES: Membrane permeability in Franz diffusion cell
- Type: in vitro ADME
- EXPERIMENTAL_CONTEXT: pH 7.4, PermeaPad barrier; enhancement in the presence of M-β-CD in donor solution (highest value reached); read-out: permeability coefficient (Papp)
- Method: Membrane permeability coefficients of the studied drugs were measured in the Franz diffusion cell of vertical type (PermeGear, Inc., Hellertown, PA, USA) with 7 mL/1 mL volumes of the donor and acceptor solutions through the reverse dialysis set up. […] The solutions concentrations were analyzed via spectrophotometer (Spectramax 190; Molecular Devices Corporation, San Jose, CA, USA) in 96-well UV black plates (Costar) at a wavelength of 264 nm and 266 nm for IPN and INZ/iNAM, respectively. […]
METRIC: Papp at 5 h

MOLECULE	RESULT
CC(C)NNC(=O)c1ccncc1 [IPN, N′-isopropyl isonicotinic hydrazide]	≤ 28.7 ×10⁻⁶ cm/s
